Where these numbers come from: paper PMC7144376

Catalogue of SI (CC50/EC50), ADV7 values
- Tested on: ADV7
- TEST_METHOD_NOTES: Inhibition of ADV7-induced cytopathic effects in HeLa cells (MTT)
- Assay type: cell-based, adenovirus type 7

- COMPOUND: "Cc1cccnc1-c1ccc(Br)cc1OC(=O)c1ccccc1"
  SI (CC50/EC50), ADV7: 3.3
- COMPOUND: "O=C(Oc1cc(Br)ccc1-c1ccccn1)c1ccccc1"
  SI (CC50/EC50), ADV7: 4.9
- COMPOUND: "O=C(Oc1cc(Cl)ccc1-c1ccccn1)c1ccccc1"
  SI (CC50/EC50), ADV7: 9.8
- COMPOUND: "Cc1cccc(OC(=O)c2ccccc2)c1-c1ccccn1"
  SI (CC50/EC50), ADV7: 9.8
- COMPOUND: "CC(=O)c1ccc(-c2ccccn2)c(OC(=O)c2ccccc2)c1"
  SI (CC50/EC50), ADV7: 13.0

----------
- Tested on: ADV7
- TEST_METHOD_NOTES: Inhibition of ADV7-induced cytopathic effects in HeLa cells (MTT)
- Type: cell-based, adenovirus type 7
- ASSAY_SETUP: Human mastadenovirus B, 100 TCID50 ADV7, 48 h, MTT, read-out: EC50 (50% protection from virus-induced cytopathogenicity), ADV7
List of EC50 values.

- COMPOUND: "CC(=O)Oc1ccc(-c2ccccn2)c(OC(=O)c2ccccc2)c1"
  UNIT: "µM"
  EC50: 65.2
- COMPOUND: "O=C(Oc1cc(Cl)ccc1-c1ccccn1)c1ccccc1"
  UNIT: "µM"
  EC50: 27.1
- COMPOUND: "NC(=O)c1ncn([C@@H]2O[C@H](CO)[C@@H](O)[C@H]2O)n1 [Ribavirin, reference compound]"
  UNIT: "µM"
  EC50: 114
- COMPOUND: "Cc1ccc(OC(=O)c2ccccc2)c(-c2ncccc2C)c1"
  UNIT: "µM"
  EC50: 66
- COMPOUND: "COc1ccc(-c2ccccn2)c(OC(=O)c2ccccc2)c1"
  UNIT: "µM"
  EC50: 50.8
- COMPOUND: "Cc1cccnc1-c1ccc(Br)cc1OC(=O)c1ccccc1"
  UNIT: "µM"
  EC50: 63.6
- COMPOUND: "Cc1ccc(OC(=O)C(C)(C)C)c(-c2ccccn2)c1"
  UNIT: "µM"
  EC50: 36.4
- COMPOUND: "CC(=O)c1ccc(-c2ccccn2)c(OC(=O)c2ccccc2)c1"
  UNIT: "µM"
  EC50: 75.4
- COMPOUND: "O=C(Oc1cc(Br)ccc1-c1ccccn1)c1ccccc1"
  UNIT: "µM"
  EC50: 51.1

----------
Item-by-item account of CC50 at 48 h
- TEST_METHOD_NOTES: Cytotoxicity on uninfected HeLa cells (MTT, 48 h)
- Format: cell-based
- ASSAY_SETUP: human, read-out: CC50 (reduce cell viability by 50%), ADV7 host cells

- MOLECULE: "O=C(Oc1cc(Cl)ccc1-c1ccccn1)c1ccccc1 [W9]"
  UNIT: "µM"
  RELATIONAL_OPERATOR: "="
  CC50 at 48 h: 265
- MOLECULE: "CC(=O)c1ccc(-c2ccccn2)c(OC(=O)c2ccccc2)c1 [W14]"
  UNIT: "µM"
  RELATIONAL_OPERATOR: "="
  CC50 at 48 h: 979
- MOLECULE: "NC(=O)c1ncn([C@@H]2O[C@H](CO)[C@@H](O)[C@H]2O)n1 [Ribavirin, reference compound]"
  UNIT: "µM"
  RELATIONAL_OPERATOR: "="
  CC50 at 48 h: 807
- MOLECULE: "CC(=O)Oc1ccc(-c2ccccn2)c(OC(=O)c2ccccc2)c1 [W15]"
  UNIT: "µM"
  RELATIONAL_OPERATOR: "="
  CC50 at 48 h: 795
- MOLECULE: "Cc1cccnc1-c1sccc1OC(=O)c1ccccc1 [W7]"
  UNIT: "µM"
  RELATIONAL_OPERATOR: "="
  CC50 at 48 h: 1030
- MOLECULE: "Cc1ccc(OC(=O)C(C)(C)C)c(-c2ccccn2)c1 [W13]"
  UNIT: "µM"
  RELATIONAL_OPERATOR: ">"
  CC50 at 48 h: 372
- MOLECULE: "Cc1ccc(OC(=O)c2ccccc2)c(-c2ncccc2C)c1 [W6]"
  UNIT: "µM"
  RELATIONAL_OPERATOR: "="
  CC50 at 48 h: 326
- MOLECULE: "O=C(Oc1ccccc1-c1ccccn1)c1ccccc1 [W1]"
  UNIT: "µM"
  RELATIONAL_OPERATOR: "="
  CC50 at 48 h: 1060
- MOLECULE: "COc1ccc(-c2ccccn2)c(OC(=O)c2ccccc2)c1 [W2]"
  UNIT: "µM"
  RELATIONAL_OPERATOR: ">"
  CC50 at 48 h: 656
- MOLECULE: "O=C(Oc1cc(Br)ccc1-c1ccccn1)c1ccccc1 [W10]"
  UNIT: "µM"
  RELATIONAL_OPERATOR: "="
  CC50 at 48 h: 249
